Sourced from patent US9056874B2

Target: factor B (Homo sapiens, UniProt P00751)
Sequence (P00751 26-764): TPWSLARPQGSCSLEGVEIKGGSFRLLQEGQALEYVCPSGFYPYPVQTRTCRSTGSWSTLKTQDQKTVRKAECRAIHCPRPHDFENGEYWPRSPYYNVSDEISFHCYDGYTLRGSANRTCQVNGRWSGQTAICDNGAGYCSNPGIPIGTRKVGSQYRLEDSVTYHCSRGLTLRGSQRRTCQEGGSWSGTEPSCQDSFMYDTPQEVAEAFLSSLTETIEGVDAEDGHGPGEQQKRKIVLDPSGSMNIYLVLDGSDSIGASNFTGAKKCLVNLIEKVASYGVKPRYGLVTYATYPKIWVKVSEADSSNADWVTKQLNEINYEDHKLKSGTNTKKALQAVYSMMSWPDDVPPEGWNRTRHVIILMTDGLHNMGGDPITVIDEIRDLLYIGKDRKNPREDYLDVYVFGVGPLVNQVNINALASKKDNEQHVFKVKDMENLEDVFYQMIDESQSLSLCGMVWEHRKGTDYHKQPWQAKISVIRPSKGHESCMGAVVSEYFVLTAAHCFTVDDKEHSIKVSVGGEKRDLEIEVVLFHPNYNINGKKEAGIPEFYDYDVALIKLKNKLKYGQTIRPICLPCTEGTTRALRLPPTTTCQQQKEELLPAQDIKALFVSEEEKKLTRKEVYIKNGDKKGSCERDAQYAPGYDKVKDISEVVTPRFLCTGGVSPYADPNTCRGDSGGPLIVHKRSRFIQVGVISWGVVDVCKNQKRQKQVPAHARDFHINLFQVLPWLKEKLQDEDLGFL
Experiment: assay of Biological Example 2.7
Type: binding
Set-up: made in house; host or cells: drosophila cells
Conditions: assay of Biological Example 2.7 (Table 2)
pIC50: −log10 of the molar value.
Please note: satisfied applies when pIC50 is 7 or greater, and not satisfied applies otherwise.

INSERT INTO measurements (compound, label) VALUES
  ('[2H]C([2H])([2H])OC(c1nc2cc(C#N)ccc2[nH]1)(c1c(OC)cc(C)c2[nH]ccc12)C(F)(F)F (single isomer, unassigned; (+)) [137-J b) (+)]', 'not satisfied'),
  ('COc1cc(C)c2[nH]ccc2c1C(C)(OC)c1nc2cc(C#N)ccc2o1 (single isomer, unassigned; (-)) [137-K b) (−)]', 'not satisfied'),
  ('COc1cc(C)c2[nH]ccc2c1C(C)(O)c1nc2cc(C#N)ccc2o1 (single isomer, unassigned; (-)) [137-N b) (−)]', 'satisfied'),
  ('[2H]C([2H])([2H])OC(c1nc2cc(C#N)ccc2[nH]1)(c1c(OC)cc(C)c2[nH]ccc12)C(F)(F)F (single isomer, unassigned; (-)) [137-J b) (−)]', 'satisfied'),
  ('COc1cc(C)c2[nH]cc3c2c1C(c1nc2cc(C#N)ccc2[nH]1)(C(F)(F)F)NC3 (single isomer, unassigned; (+))', 'satisfied'),
  ('COc1cc(C)c2[nH]ccc2c1C(c1nc2cc(C#N)ccc2[nH]1)C(C)C(=O)O (single isomer, unassigned; diastereomer a) [Example 147-D]', 'not satisfied'),
  ('COc1cc(C)c2[nH]ccc2c1C(CCC(=O)O)c1nc2cc(C#N)ccc2[nH]1 (racemic)', 'satisfied');
